Value source: patent US20080200431A1

Reported values: pIC50 for human FXa (Homo sapiens, UniProt P00742), one per item.
Entry type: numeric. Quantity: pIC50, the -log10 of concentration in molar units.

COMPOUND: Cn1nc(N2CCC(C(=O)N3CCN(S(=O)(=O)c4ccc5c(Cl)c[nH]c5c4)C(O)C3)CC2)ccc1=O (centres unmarked)
OBSERVED RESULT: 8.32

Could you now consider this next compound?
Dear colleague, I am looking for the recorded pIC50 of the following compound: `Cc1cc(N2CCC(C(=O)N3CCN(S(=O)(=O)c4ccc5c(Cl)c[nH]c5c4)CC3)CC2)c[nH]c1=O` 7.01
